molecular target: PDE-5 (UniProt O76074); experiment: In vitro PDE inhibitory activity against PDE5 (batch method or scintillation proximity assay); assay type: biochemical, human; settings: representative compounds, read-out: IC50
measurement.type: log10(IC50) (log10 of the value in nM)

compound.smiles: CCOCCn1nc(C(=O)O)c2nc(N(C)CC)nc(Nc3cc(C)ccc3F)c21
endpoint.result: 0.93
//
compound.smiles: CCN(C)c1nc(Nc2cc(C)ccn2)c2c(n1)c(C(=O)NS(C)(=O)=O)nn2CCOCC(F)(F)F
endpoint.result: 0.34
//
compound.smiles: CCOCCn1nc(C(=O)O)c2nc(N3CC[C@@H](OC)C3)nc(Nc3cc(C)ccn3)c21
endpoint.result: 0.16
//
compound.smiles: CCOCCn1nc(C(=O)O)c2nc(N(C)C(C)C)nc(Nc3cc(C)ccn3)c21
endpoint.result: -0.25
//
compound.smiles: CCOCCn1nc(C(=O)O)c2nc(N(C)C(C)C)nc(Nc3cc(CC)ccn3)c21
endpoint.result: -0.15
//
compound.smiles: CCOCCn1nc(C(=O)O)c2nc(N(C)C)nc(Nc3ccc(C)cn3)c21
endpoint.result: 1.73
//
compound.smiles: CCOCCn1nc(C(=O)O)c2nc(N(C)C(C)C)nc(Nc3ccc(F)c(C)c3)c21
endpoint.result: -1.26
//
compound.smiles: CCOCCn1nc(C(=O)NS(C)(=O)=O)c2nc(N(C)CC)nc(Nc3cccc(C)n3)c21
endpoint.result: 1.16
//
compound.smiles: CCCN(CC1CC1)c1nc(Nc2cc(C)ccn2)c2c(n1)c(C(=O)O)nn2CCOCC
endpoint.result: 0.69
//
compound.smiles: CCOCCn1nc(C(=O)O)c2nc(N(C)C)nc(Nc3cccc(C)n3)c21
endpoint.result: 1.76
//
compound.smiles: Cc1cccc(Nc2nc(N(C)C(C)C)nc3c(C(=O)O)nn(CCOCC(F)(F)F)c23)c1
endpoint.result: -1.19
//
compound.smiles: CCOCCn1nc(C(=O)OC)c2nc(N(CC)CC)nc(Nc3ccc(F)c(C)c3)c21
endpoint.result: -1.60
//
compound.smiles: CCOCCn1nc(C(=O)O)c2nc(N(C)C(C)C)nc(Nc3cnccn3)c21
endpoint.result: 2.03

---

biological target: PDE-5 (UniProt O76074); assay: In vitro PDE inhibitory activity against PDE5 (batch method or scintillation proximity assay); assay type: biochemical, human; conditions: representative compounds, read-out: IC50
# reported log10(IC50); entries follow
measurement.type: log10(IC50) (log10 of the value in nM)

compound: CCOCCn1nc(C(=O)O)c2nc(N3CC[C@H](OC)C3)nc(Nc3cc(C)ccn3)c21 [Example 12]
measurement.type: log10(IC50)
endpoint.result: 1.17
//
compound: Cc1ccnc(Nc2nc(N(C)C(C)C)nc3c(C(=O)O)nn(CCOCC4CC4)c23)c1 [Example 108]
measurement.type: log10(IC50)
endpoint.result: 1.26
//
compound: CCOCCn1nc(C(=O)OC)c2nc(N(C)CC)nc(Nc3cc(C)ccn3)c21 [Example 2]
measurement.type: log10(IC50)
endpoint.result: -0.70
//
compound: CCN(C)c1nc(Nc2cc(C)ccn2)c2c(n1)c(C(=O)O)nn2CCOC [Example 119]
measurement.type: log10(IC50)
endpoint.result: 1.06
//
compound: Cc1ccnc(Nc2nc(N(C)C(C)C)nc3c(C(=O)O)nn(CCOCC(F)(F)F)c23)c1 [Example 126]
measurement.type: log10(IC50)
endpoint.result: 0.48
//
compound: CCOCCn1nc(C(=O)O)c2nc(N(C)C3CCC3)nc(Nc3cc(C)ccn3)c21 [Example 51]
measurement.type: log10(IC50)
endpoint.result: 0.41
//
compound: CCN(CC)c1nc(Nc2cc(C)ccn2)c2c(n1)c(C(=O)NS(C)(=O)=O)nn2CCOCCCF [Example 177]
measurement.type: log10(IC50)
endpoint.result: -0.77
//
compound: CCOCCn1nc(C(=O)O)c2nc(N(C)C(C)C)nc(Nc3ccc(F)c(F)c3)c21 [Example 90]
measurement.type: log10(IC50)
endpoint.result: 0.45
//
compound: CCOCCn1nc(C(=O)O)c2nc(N(C)C(C)C)nc(Nc3cccc(F)c3)c21 [Example 88]
measurement.type: log10(IC50)
endpoint.result: 1.33
//
compound: CCOCCn1nc(-c2nnn[nH]2)c2nc(N(C)C)nc(Nc3cc(C)ccn3)c21 [Example 80]
measurement.type: log10(IC50)
endpoint.result: 0.46
//
compound: CCOCCn1nc(C(=O)OCC)c2nc(N(C)C(C)C)nc(Nc3cc(C)ccn3)c21 [Example 9]
measurement.type: log10(IC50)
endpoint.result: -1.12
//
compound: CCOCCn1nc(C(=O)O)c2nc(N(C)C)nc(Nc3cc(C)cc(C)n3)c21 [Example 27]
measurement.type: log10(IC50)
endpoint.result: 1.57
//
compound: CCOCCn1nc(C(=O)O)c2nc(N(C)C(C)C)nc(Nc3ccccc3)c21 [Example 95]
measurement.type: log10(IC50)
endpoint.result: 0.96
//
compound: CCOCCn1nc(C(=O)O)c2nc(N(C)CC)nc(Nc3cccc(C)c3)c21 [Example 118]
measurement.type: log10(IC50)
endpoint.result: 0.24
//
compound: CCOCCn1nc(C(=O)O)c2nc(N(C)C(C)C)nc(Nc3ccccn3)c21 [Example 105]
measurement.type: log10(IC50)
endpoint.result: -0.13
//
compound: CCOCCn1nc(C(=O)OCCN(C)C)c2nc(N(C)C(C)C)nc(Nc3cc(C)ccn3)c21 [Example 147]
measurement.type: log10(IC50)
endpoint.result: -0.85
//
compound: CCOCCn1nc(C(=O)OC)c2nc(N(C)CC)nc(Nc3ccc(F)c(C)c3)c21 [Example 116]
measurement.type: log10(IC50)
endpoint.result: -1.49
//
compound: CCCOCCn1nc(C(=O)NS(C)(=O)=O)c2nc(N(C)CC)nc(Nc3cc(C)ccn3)c21 [Example 171]
measurement.type: log10(IC50)
endpoint.result: 0.08
//
compound: CO[C@H](C)Cn1nc(C(=O)O)c2nc(N(C)C(C)C)nc(Nc3cc(C)ccn3)c21 [Example 112]
measurement.type: log10(IC50)
endpoint.result: 1.17
//
compound: CCCOCCn1nc(C(=O)NS(C)(=O)=O)c2nc(N(C)C(C)C)nc(Nc3cc(C)ccn3)c21 [Example 184]
measurement.type: log10(IC50)
endpoint.result: -0.30
//
compound: CCOCCn1nc(C(=O)O)c2nc(N(C)C(C)C)nc(Nc3cc(C)cc(C)n3)c21 [Example 26]
measurement.type: log10(IC50)
endpoint.result: 0.21
//
compound: CCN(CC)c1nc(Nc2cc(C)ccn2)c2c(n1)c(C(=O)O)nn2C[C@@H](C)OC [Example 66]
measurement.type: log10(IC50)
endpoint.result: 1.13
//
compound: CCN(C)c1nc(Nc2cc(C)ccn2)c2c(n1)c(C(=O)NS(C)(=O)=O)nn2CCO [Example 185]
measurement.type: log10(IC50)
endpoint.result: 1.06
//
compound: Cc1ccnc(Nc2nc(N(C)C(C)C)nc3c(C(=O)NS(C)(=O)=O)nn(CCOCC(F)(F)F)c23)c1 [Example 179]
measurement.type: log10(IC50)
endpoint.result: -0.04
//
compound: CCOCCn1nc(C(=O)O)c2nc(N3CCCC3C)nc(Nc3cc(C)ccn3)c21 (stereo not drawn) [Example 53]
measurement.type: log10(IC50)
endpoint.result: -0.10
//
compound: CCOCCn1nc(C(=O)O)c2nc(N[C@H](C)CC)nc(Nc3cc(C)ccn3)c21 [Example 56]
measurement.type: log10(IC50)
endpoint.result: 0.96
//
compound: CCOCCn1nc(C(=O)O)c2nc(N(C)C)nc(Nc3cc(CC)ccn3)c21 [Example 37]
measurement.type: log10(IC50)
endpoint.result: 1.38
//
compound: CCOCCn1nc(C(=O)OCC)c2nc(N(C)CC)nc(Nc3cc(C)ccn3)c21 [Example 7]
measurement.type: log10(IC50)
endpoint.result: -1.09
//
compound: CCOCCn1nc(C(=O)O)c2nc(N(C)C(C)C)nc(Nc3cccc(F)c3F)c21 [Example 93]
measurement.type: log10(IC50)
endpoint.result: 1.37
//
compound: Cc1ccnc(Nc2nc(N(C)C3CCC3)nc3c(C(=O)O)nn(CCOCC(F)(F)F)c23)c1 [Example 130]
measurement.type: log10(IC50)
endpoint.result: 1.29
//
compound: CCOCCn1nc(-c2nc(=O)o[nH]2)c2nc(N(CC)CC)nc(Nc3ccc(F)c(C)c3)c21 [Example 78]
measurement.type: log10(IC50)
endpoint.result: -0.62
//
compound: CCCOCCn1nc(C(=O)NS(C)(=O)=O)c2nc(N(CC)CC)nc(Nc3cc(C)ccn3)c21 [Example 183]
measurement.type: log10(IC50)
endpoint.result: -0.42
//
compound: CCOCCn1nc(C(=O)O)c2nc(N(C)CC)nc(Nc3cccc(C)n3)c21 [Example 38]
measurement.type: log10(IC50)
endpoint.result: 1.22

Value source: patent US7572799B2
